- system_tested: p38a activated, mitogen-activated protein kinase-activated protein kinase 2 (MAPKAP-K2 or MK2) enzyme (Homo sapiens)
- Sequence (P49137 whole entry): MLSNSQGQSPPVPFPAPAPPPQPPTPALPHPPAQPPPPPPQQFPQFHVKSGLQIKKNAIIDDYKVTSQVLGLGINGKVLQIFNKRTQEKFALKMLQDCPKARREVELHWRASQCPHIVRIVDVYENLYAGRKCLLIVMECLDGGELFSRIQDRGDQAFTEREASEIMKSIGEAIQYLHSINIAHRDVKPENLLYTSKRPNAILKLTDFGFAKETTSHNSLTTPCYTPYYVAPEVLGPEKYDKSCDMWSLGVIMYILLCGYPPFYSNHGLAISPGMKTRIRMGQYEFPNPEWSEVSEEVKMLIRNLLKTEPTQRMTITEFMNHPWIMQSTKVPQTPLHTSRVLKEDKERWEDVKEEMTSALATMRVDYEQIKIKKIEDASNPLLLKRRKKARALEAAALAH
- assay_notes: MK2 OMNIA biochemical assay (AssayQuant continuous-read kinase assay)
- reported_conditions: [MK-2]=0.05 nM, [ATP]=100 μM, [AQT0425]=10 μM
parameter: IC50

[[record]]
molecule = "C[C@@H]1CNc2c(sc3ccc4nc(-n5cc(C6CCN(CCN7CCN(c8ccc(C9CCC(=O)NC9=O)cc8)CC7)CC6)nn5)ccc4c23)C(=O)N1 (stereo partly drawn) [Ex 45]"
parameter = "IC50"
value_reported = "< 150 nM"

[[record]]
molecule = "C[C@@H]1CNc2c(sc3ccc4nc(-c5cnn(C6CN(CCN7CCN(c8ccc9c(C%10CCC(=O)NC%10=O)nn(C)c9c8)CC7)C6)c5)ccc4c23)C(=O)N1 (stereo partly drawn) [Ex 52]"
parameter = "IC50"
value_reported = "< 150 nM"


Next molecule, please.
Given the molecule C[C@@H]1CNc2c(sc3ccc4nc(-c5ccc(C(=O)N[C@H]6CC[C@H](CCN7CCN(c8ccc9c(C%10CCC(=O)NC%10=O)nn(C)c9c8)CC7)CC6)cc5F)ccc4c23)C(=O)N1 (stereo partly drawn) [Ex 6] , what is its reported IC50?
< 150 nM

###

- system_tested: p38a activated, mitogen-activated protein kinase-activated protein kinase 2 (MAPKAP-K2 or MK2) enzyme (Homo sapiens)
- assay_notes: MK2 OMNIA biochemical assay (AssayQuant continuous-read kinase assay)
- reported_conditions: [MK-2]=0.05 nM, [ATP]=100 μM, [AQT0425]=10 μM
parameter: IC50

Example entries and their recorded answers appear below.
[[record]]
compound = "C[C@@H]1CNc2c(sc3ccc4nc(-c5cccc(N6CCN(C(=O)C(=O)N7CCN(c8ccc(C9CCC(=O)NC9=O)cc8)CC7)CC6)c5)ccc4c23)C(=O)N1 (stereo partly drawn) [Ex 13]"
parameter = "IC50"
value_reported = "< 150 nM"

[[record]]
compound = "C[C@@H]1CNc2c(sc3ccc4nc(-c5ccc(C6CCN(CCN7CCN(c8ccc(C9CCC(=O)NC9=O)cc8)CC7)CC6)cc5)ccc4c23)C(=O)N1 (stereo partly drawn) [Ex 27]"
parameter = "IC50"
value_reported = "< 150 nM"


Next compound, please.
Given the compound C[C@@H]1CNc2c(sc3ccc4nc(-c5ccc(N6CCC(CCN7CCN(c8ccc(C9CCC(=O)NC9=O)cc8)CC7)CC6)cc5)ccc4c23)C(=O)N1 (stereo partly drawn) [Ex 39] , what is its reported IC50?
151 to 500 nM

###

// reported IC50 for each item listed
- system_tested: p38a activated, mitogen-activated protein kinase-activated protein kinase 2 (MAPKAP-K2 or MK2) enzyme (Homo sapiens)
- assay_notes: MK2 OMNIA biochemical assay (AssayQuant continuous-read kinase assay)
- reported_conditions: [MK-2]=0.05 nM, [ATP]=100 μM, [AQT0425]=10 μM

[[record]]
compound = "C[C@@H]1CNc2c(sc3ccc4nc(-c5cn(C6CCN(CCN7CCN(c8ccc9c(C%10CCC(=O)NC%10=O)nn(C)c9c8)CC7)CC6)nn5)ccc4c23)C(=O)N1 (stereo partly shown)"
value_reported = "< 150 nM"

[[record]]
compound = "C[C@@H]1CNc2c(sc3ccc4nc(-c5cccc(C6CCN(CCN7CCN(c8ccc9c(C%10CCC(=O)NC%10=O)nn(C)c9c8)CC7)CC6)c5)ccc4c23)C(=O)N1 (stereo partly shown)"
value_reported = "< 150 nM"

[[record]]
compound = "C[C@@H]1CNc2c(sc3ccc4nc(-c5ccc(N6CCN(C(=O)C(=O)N7CCN(c8ccc(C9CCC(=O)NC9=O)cc8)CC7)CC6)cc5)ccc4c23)C(=O)N1 (stereo partly shown)"
value_reported = "< 150 nM"


Given the compound C[C@@H]1COc2c(sc3ccc4nc(-c5ccc(C6CCN(CCN7CCN(c8ccc(C9CCC(=O)NC9=O)cc8)CC7)CC6)cc5)ccc4c23)C(=O)N1 (stereo partly shown) , what is its reported IC50?
151 to 500 nM

Given the compound C[C@@H]1CNc2c(sc3ccc4nc(-c5ccc(N6CCN(CCN7CCC(c8ccc(C9CCC(=O)NC9=O)cc8)CC7)CC6)cc5)ccc4c23)C(=O)N1 (stereo partly shown) , what is its reported IC50?
< 150 nM

Given the compound C[C@@H]1CNc2c(sc3ccc4nc(-n5cc(C6CCN(CCN7CCN(c8ccc9c(C%10CCC(=O)NC%10=O)nn(C)c9c8)CC7)CC6)nn5)ccc4c23)C(=O)N1 (stereo partly shown) , what is its reported IC50?
< 150 nM

Given the compound C[C@@H]1CNc2c(sc3ccc4nc(-c5ccc(C6=CCN(CCN7CCN(c8ccc(C9CCC(=O)NC9=O)cc8)CC7)CC6)cc5)ccc4c23)C(=O)N1 (stereo partly shown) , what is its reported IC50?
< 150 nM

Given the compound C[C@@H]1COc2c(sc3ccc4nc(-c5ccc(N6CCN(CCN7CCN(c8ccc(C9CCC(=O)NC9=O)cc8)CC7)CC6)cc5)ccc4c23)C(=O)N1 (stereo partly shown) , what is its reported IC50?
151 to 500 nM

Given the compound C[C@@H]1CNc2c(sc3ccc4nc(-c5ccc(C6CCN(CCN7CCC(c8ccc(C9CCC(=O)NC9=O)cc8)CC7)CC6)cc5)ccc4c23)C(=O)N1 (stereo partly shown) , what is its reported IC50?
< 150 nM

Given the compound C[C@@H]1CNc2c(sc3ccc4nc(-c5cccc(N6CCN(CCN7CCN(c8ccc9c(C%10CCC(=O)NC%10=O)nn(C)c9c8)CC7)CC6)c5)ccc4c23)C(=O)N1 (stereo partly shown) , what is its reported IC50?
< 150 nM

Given the compound C[C@@H]1CNc2c(sc3ccc4nc(-c5ccc(N6CC(CN7CCN(c8ccc(C9CCC(=O)NC9=O)cc8)CC7)C6)cc5)ccc4c23)C(=O)N1 (stereo partly shown) , what is its reported IC50?
< 150 nM

Given the compound C[C@@H]1CNc2c(sc3ccc4nc(-c5cnn(C6CCN(CCN7CCN(c8ccc(C9CCC(=O)NC9=O)cc8)CC7)CC6)c5)ccc4c23)C(=O)N1 (stereo partly shown) , what is its reported IC50?
< 150 nM

Given the compound C[C@@H]1CNc2c(sc3ccc4nc(-c5ccc(C(=O)N[C@H]6CC[C@H](CN7CCN(c8ccc(C9CCC(=O)NC9=O)cc8)CC7)CC6)cc5F)ccc4c23)C(=O)N1 (stereo partly shown) , what is its reported IC50?
< 150 nM

Given the compound C[C@@H]1CNc2c(sc3ccc4nc(-c5ccc(N6CCC(CCN7CCC(c8ccc(C9CCC(=O)NC9=O)cc8)CC7)CC6)cc5)ccc4c23)C(=O)N1 (stereo partly shown) , what is its reported IC50?
151 to 500 nM

Given the compound C[C@@H]1CNc2c(sc3ccc4nc(-c5ccc(N6CCN(CCN7CCN(c8ccc9c(C%10CCC(=O)NC%10=O)nn(C)c9c8)CC7)CC6)cc5)ccc4c23)C(=O)N1 (stereo partly shown) , what is its reported IC50?
151 to 500 nM

Given the compound C[C@@H]1CNc2c(sc3ccc4nc(-c5ccc(C6CN(CCN7CCN(c8ccc(C9CCC(=O)NC9=O)cc8)CC7)C6)cc5)ccc4c23)C(=O)N1 (stereo partly shown) , what is its reported IC50?
< 150 nM
